Source of measurements: patent US10729628B2

System: mushroom tyrosinase (MT)
PROTOCOL_DETAILS: Tyrosinase assay by oxidation of DOPA, mushroom tyrosinase
Assay type: biochemical
COND: 1 mM test compound; 37° C., 45 minutes
For each record, write down the corresponding % Inhibition (MT).

GET /values?readout=% Inhibition (MT)&item= COC(=O)C(C)(C)NC(=O)C(CC(C)C)NC(=O)C(C)NC(=O)c1ccc2c(c1)OCCOCCOCCOc1ccc(C(=O)NC(C)C(=O)NC(CC(C)C)C(=O)NC(C)(C)C(=O)OC)cc1OCCOCCOCCO2 (stereo not shown)
69%

// lookup % Inhibition (MT) for `O=C(O)c1ccc2c(c1)OCCOCCOCCOc1ccc(C(=O)O)cc1OCCOCCOCCO2`
49%

Quick one: % Inhibition (MT) for `O=C(NC1CCCCC1)N(C(=O)c1ccc2c(c1)OCCOCCOCCO2)C1CCCCC1` ?
28%

Give the measured % Inhibition (MT) of `O=C(O)c1ccc2c(c1)OCCOCCOCCO2` .
60%

---

Tested on: mushroom tyrosinase (MT)
PROTOCOL_DETAILS: Tyrosinase assay by oxidation of DOPA, mushroom tyrosinase
Assay type: biochemical
COND: 0.1 mM test compound; 37° C., 45 minutes; background-corrected; uninhibited enzyme control 0.17
Please go through the items and note down their OD475 nm (MT).

What value of OD475 nm (MT) has been recorded for this entry: O=c1cc(CO)occ1O [Kojic acid, reference compound]
0.131

What OD475 nm (MT) value was documented for this molecule, COC(=O)C(C)(C)NC(=O)C(CC(C)C)NC(=O)C(C)NC(=O)c1ccc2c(c1)OCCOCCOCCOc1ccc(C(=O)NC(C)C(=O)NC(CC(C)C)C(=O)NC(C)(C)C(=O)OC)cc1OCCOCCOCCO2 (stereo not shown) [Compound d] ?
0.071

I'd like to know its OD475 nm (MT). The molecule in question is O=C(O)c1ccc2c(c1)OCCOCCOCCOc1ccc(C(=O)O)cc1OCCOCCOCCO2 [Compound c]
0.162

Record request: OD475 nm (MT) value, item O=C(O)c1ccc2c(c1)OCCOCCOCCO2 [Compound a]
0.128

---

Exercise: state measured OD475 nm (HME) for each of the molecules provided.
SYSTEM: human Tyrosinase (in the form of melanocytic extract) (Homo sapiens)
Construct: 2.5 mg/ml human melanocytic lysate OR; endogenous in cells; host or cells: human melanocytes (lysate/extract)
Sequence (P14679 19-529): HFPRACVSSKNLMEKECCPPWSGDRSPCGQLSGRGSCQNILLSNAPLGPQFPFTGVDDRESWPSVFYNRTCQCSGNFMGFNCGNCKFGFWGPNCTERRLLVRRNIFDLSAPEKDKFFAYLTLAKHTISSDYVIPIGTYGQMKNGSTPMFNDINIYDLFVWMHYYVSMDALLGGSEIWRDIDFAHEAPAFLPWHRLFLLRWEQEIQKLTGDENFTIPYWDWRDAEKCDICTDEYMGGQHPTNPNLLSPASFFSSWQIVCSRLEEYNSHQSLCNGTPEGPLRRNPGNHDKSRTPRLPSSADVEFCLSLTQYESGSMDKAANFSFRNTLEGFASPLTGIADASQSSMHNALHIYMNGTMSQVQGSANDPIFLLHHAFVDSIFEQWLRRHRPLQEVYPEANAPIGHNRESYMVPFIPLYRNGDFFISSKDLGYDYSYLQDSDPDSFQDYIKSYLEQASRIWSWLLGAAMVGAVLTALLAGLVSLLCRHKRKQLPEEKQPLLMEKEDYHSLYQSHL
PROTOCOL_DETAILS: Tyrosinase assay by oxidation of DOPA, human tyrosinase (melanocytic extract)
Format: biochemical
COND: 1 mM test compound; 37° C., 45 minutes; background-corrected; uninhibited enzyme control 0.141
Method: The (tyrosinase) inhibitory activity of a, b, c and d was measured by oxidation of DOPA. Each crown ether was tested against human Tyrosinase (in the form of melanocytic extract) and commercial (Worthington, USA) mushroom tyrosinase (MT), using the DOPA oxidation assay. Details of the assay mix are included in table 2. […] Assay examined the change (Optical Density) OD475 nm at 37° C., after 45 minutes reaction in a standard 96-well plate. […]
Reply: number alone, nothing else.

Can you share its OD475 nm (HME)? I mean this molecule: `O=C(O)c1ccc2c(c1)OCCOCCOCCOc1ccc(C(=O)O)cc1OCCOCCOCCO2`
0.027

Please give the measured OD475 nm (HME) for this molecule: `O=C(O)c1ccc2c(c1)OCCOCCOCCO2`
0.029

Name the recorded OD475 nm (HME) for `O=C(NC1CCCCC1)N(C(=O)c1ccc2c(c1)OCCOCCOCCO2)C1CCCCC1` .
0.162

Query (molecule): COC(=O)C(C)(C)NC(=O)C(CC(C)C)NC(=O)C(C)NC(=O)c1ccc2c(c1)OCCOCCOCCOc1ccc(C(=O)NC(C)C(=O)NC(CC(C)C)C(=O)NC(C)(C)C(=O)OC)cc1OCCOCCOCCO2 (stereo not shown) ; field requested: OD475 nm (HME)
0.110

---

Field: OD475 nm (MT). Provide a value for each of the compounds that follow.
Tested on: mushroom tyrosinase (MT)
PROTOCOL_DETAILS: Tyrosinase assay by oxidation of DOPA, mushroom tyrosinase
Format: biochemical
COND: 1 mM test compound; 37° C., 45 minutes; background-corrected; uninhibited enzyme control 0.17

Name the reported OD475 nm (MT) value associated with the compound O=C(O)c1ccc2c(c1)OCCOCCOCCOc1ccc(C(=O)O)cc1OCCOCCOCCO2 [Compound c]
0.087

Looking for the measured OD475 nm (MT) of O=C(O)c1ccc2c(c1)OCCOCCOCCO2 [Compound a] , can you help?
0.068

What does the record list as OD475 nm (MT) for O=C(NC1CCCCC1)N(C(=O)c1ccc2c(c1)OCCOCCOCCO2)C1CCCCC1 [Compound b] ?
0.122

OD475 nm (MT) for COC(=O)C(C)(C)NC(=O)C(CC(C)C)NC(=O)C(C)NC(=O)c1ccc2c(c1)OCCOCCOCCOc1ccc(C(=O)NC(C)C(=O)NC(CC(C)C)C(=O)NC(C)(C)C(=O)OC)cc1OCCOCCOCCO2 (stereo not shown) [Compound d] ?
0.053

---

Tested on: mushroom tyrosinase (MT)
PROTOCOL_DETAILS: Tyrosinase assay by oxidation of DOPA, mushroom tyrosinase
Assay type: biochemical
COND: 0.1 mM test compound; 37° C., 45 minutes
Protocol: The (tyrosinase) inhibitory activity of a, b, c and d was measured by oxidation of DOPA. Each crown ether was tested against human Tyrosinase (in the form of melanocytic extract) and commercial (Worthington, USA) mushroom tyrosinase (MT), using the DOPA oxidation assay. Details of the assay mix are included in table 2. [table] Assay examined the change (Optical Density) OD475 nm at 37° C., after 45 minutes reaction in a standard 96-well plate. […]
Record form. Attribute: % Inhibition (MT). Fill in for each entry.
Number in %, nothing else.

Using the record for COC(=O)C(C)(C)NC(=O)C(CC(C)C)NC(=O)C(C)NC(=O)c1ccc2c(c1)OCCOCCOCCOc1ccc(C(=O)NC(C)C(=O)NC(CC(C)C)C(=O)NC(C)(C)C(=O)OC)cc1OCCOCCOCCO2 (stereo not shown) , report its % Inhibition (MT).
58

What % Inhibition (MT) value was documented for this molecule, `O=C(O)c1ccc2c(c1)OCCOCCOCCO2` ?
25

Value lookup for % Inhibition (MT); key = `O=C(O)c1ccc2c(c1)OCCOCCOCCOc1ccc(C(=O)O)cc1OCCOCCOCCO2`
5

If you can, please state the reported % Inhibition (MT) value of O=c1cc(CO)occ1O [Kojic acid, reference compound] .
23
